List of Activity values.
# Test system: A498
# Test method notes: Cytotoxicity against human A498 cells assessed as cell growth level at 10 uM after 48 hrs by sulforhodamine B assay
# Type: functional
Number in %, nothing else.

Known Activity results, listed for orientation:
O=C(CCN1CCCC1)Nc1cc2c(cc1O)C(=O)c1ccccc1C2=O
86.98
CCSc1nc2cc3c(cc2o1)C(=O)c1ccccc1C3=O
80.69
CN(C)CCCSc1nc2cc3c(cc2o1)C(=O)c1ccccc1C3=O
72.09

As a next step, examine the compound that follows.
// returns reported Activity for input O=C1c2ccccc2C(=O)c2cc3oc(SCc4ccc(F)cc4)nc3cc21
94.5
